experimental-target: T1, recombinant human IL-23R/Fc chimera (R&D Systems) (human, UniProt Q5VWK5 24-355)
T1 construct: Bought; also called rhIL23RFc
T1 sequence (looked up): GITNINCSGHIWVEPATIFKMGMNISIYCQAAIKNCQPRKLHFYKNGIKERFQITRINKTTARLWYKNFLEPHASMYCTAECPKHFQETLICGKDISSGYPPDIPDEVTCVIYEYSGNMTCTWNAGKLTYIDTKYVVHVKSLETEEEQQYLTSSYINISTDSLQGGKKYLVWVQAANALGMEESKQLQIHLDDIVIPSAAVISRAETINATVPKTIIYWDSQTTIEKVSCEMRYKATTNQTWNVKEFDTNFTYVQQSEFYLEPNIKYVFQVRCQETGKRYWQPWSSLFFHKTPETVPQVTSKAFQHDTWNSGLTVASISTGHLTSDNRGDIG
experimental-protocol: SPR
Entries and their measured Ka follow.
Reply with just the number (in M⁻¹).

105-20-1H7 ATRIMER complex (designed binder) EPPTQKPKKIVNAKKDVVNTKMFEELKSRLDTLAQEVALLKEQQALQTVCLKGTKVHMKCFLAFTQTKTFHEASEDCISRGGTLSTPQTGSENDALYEYLRQSVGNEAEIWLGLNGSAGTNTWVDMTGARIAYKNWETEITAQPDGGFGYFGENCAVLSGAANGKWFDKRCRDQLPYICQFGIV = 1.34e+09

Query block: Give the measured Ka of 001-87.A5F monomeric CTLD (designed binder, not shown: small tags and cut ends, C-terminal tag not specified) ALQTVCLKGTKVHMKCFLAFTQTKTFHEASEDCISRGGTLSTPQTGSENDALYEYLRQSVGNEAEIWLGLNGSVRSATWVDMTGARIAYKNWETEITAQPDGGFGYFGENCAVLSGAANGKWFDKRCRDQLPYICQFGIV .
Result block: 4.11e+07
